Source listed as patent US8173631B2.

// reported IC50 for each item listed
# Measured On: human calcium-sensing receptor (CaSR) (Homo sapiens, UniProt P41180)
# Sequence (P41180 20-1078): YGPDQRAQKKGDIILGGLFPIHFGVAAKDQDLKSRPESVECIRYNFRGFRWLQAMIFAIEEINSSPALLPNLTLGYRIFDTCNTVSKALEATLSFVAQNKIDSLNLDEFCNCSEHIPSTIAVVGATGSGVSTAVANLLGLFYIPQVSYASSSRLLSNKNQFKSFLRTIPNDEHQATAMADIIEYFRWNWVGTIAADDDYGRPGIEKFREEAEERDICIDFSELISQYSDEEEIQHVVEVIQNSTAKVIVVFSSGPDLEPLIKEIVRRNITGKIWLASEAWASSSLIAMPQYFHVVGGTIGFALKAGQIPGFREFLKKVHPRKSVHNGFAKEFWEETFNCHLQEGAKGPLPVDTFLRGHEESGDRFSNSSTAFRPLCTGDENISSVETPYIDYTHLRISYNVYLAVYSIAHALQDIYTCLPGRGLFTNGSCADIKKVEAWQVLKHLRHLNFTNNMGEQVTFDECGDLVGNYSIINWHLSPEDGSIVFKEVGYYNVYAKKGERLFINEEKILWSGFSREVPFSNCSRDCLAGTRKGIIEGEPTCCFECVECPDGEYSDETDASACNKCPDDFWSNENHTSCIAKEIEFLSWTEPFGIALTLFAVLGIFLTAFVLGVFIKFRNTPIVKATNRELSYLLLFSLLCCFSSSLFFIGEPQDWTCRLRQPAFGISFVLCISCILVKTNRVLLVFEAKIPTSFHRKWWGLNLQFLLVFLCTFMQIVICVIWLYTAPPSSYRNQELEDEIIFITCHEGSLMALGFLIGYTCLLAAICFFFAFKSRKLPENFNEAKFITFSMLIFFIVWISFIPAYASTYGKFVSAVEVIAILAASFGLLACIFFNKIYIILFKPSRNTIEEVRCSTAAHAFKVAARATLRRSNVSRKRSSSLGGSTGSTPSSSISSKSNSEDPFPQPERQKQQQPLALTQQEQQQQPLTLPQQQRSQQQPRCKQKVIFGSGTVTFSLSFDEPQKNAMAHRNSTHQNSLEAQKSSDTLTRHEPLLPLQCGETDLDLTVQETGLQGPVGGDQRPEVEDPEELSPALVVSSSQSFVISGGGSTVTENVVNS
# Protocol Details: Inhibitory activity on calcium-sensing receptor (CaSR), intracellular calcium increase as indicator (FLIPR, CHO/hCaSR)
# Measurement Conditions: CHO cells stably expressing human CaSR; inhibition of intracellular Ca increase induced by extracellular CaCl2
Measured Quantity: IC50

- CCC[C@@H](OC[C@H](O)CN1CCC[C@H]1Cc1ccc(C)c(F)c1)c1cc(F)ccc1CCC(=O)O [Example 61]: ≤ 3.27 µM
- COc1cccc([C@@H](C)OC[C@H](O)CN2CCC[C@H]2Cc2ccc(Cl)c(F)c2)c1CCC(=O)O [Example 168]: ≤ 3.24 µM
- CCc1cc(C[C@@H]2CCCN2C[C@@H](O)CO[C@H](CC)c2cc(F)cc(F)c2CCC(=O)O)ccc1Cl [Example 111]: ≤ 3.05 µM
- Cc1ccc(C[C@@H]2CCCN2C[C@@H](O)CO[C@H](C)c2ccccc2CCCCCCC(=O)O)cc1F [Example 77]: ≤ 3.2 µM
- Cc1ccc(C[C@@H]2CCCN2C[C@@H](O)CO[C@H](C)c2cccc(OC(F)F)c2CCC(=O)O)cc1F [Example 75]: ≤ 3.14 µM
- CCC[C@@H](OC[C@H](O)CN1CCC[C@H]1Cc1ccc(C)c(F)c1)c1cccc(F)c1CCC(=O)O [Example 63]: ≤ 3.27 µM
- Cc1ccc(C[C@@H]2CCCN2C[C@@H](O)CO[C@H](C)c2cccc(C)c2CCC(=O)O)cc1Cl [Example 169]: ≤ 3.38 µM
